- Test system: UISO cells (VN-MCC)
- test-protocol: qHTS cell viability (CellTiter-Glo, 72 h; primary and follow-up small molecule screen)
- Assay type: cell-based, human
- run-conditions: UISO, 72h, Log (M) -10.1077
Here the recorded Percent viability is given for each entry.
Provide the measurement as a number trailed by its unit.

Task item: Look up Percent viability: Cc1cc(Nc2cc(N3CCN(C)CC3)nc(Sc3ccc(NC(=O)C4CC4)cc3)n2)[nH]n1 [Tozasertib, reference compound]
Reply: 97.1%

Task item: Look up Percent viability: CCn1cc(-c2ccnc3[nH]c(-c4cccc(CN(C)C)c4)cc23)c(-c2ccc(NC(=O)N(C)C)cc2)n1 [GSK-1070916A, reference compound]
Reply: 104.7%

Task item: Look up Percent viability: O=C(Nc1cccc(Cl)c1)Nc1ncc(CCNc2ncnc3ccsc23)s1 [SNS-314, reference compound]
Reply: 98.0%

Task item: Look up Percent viability: CCS(=O)(=O)c1cccc(-c2cc(C(=O)NC3CCN(C)CC3)c(C)c3[nH]c4ncc(C)cc4c23)c1 [TAK-901, reference compound]
Reply: 103.5%

---

- test-protocol: qHTS cell viability (CellTiter-Glo, 72 h; primary screen), control cell line
- Assay type: cell-based
- run-conditions: human, CRL-7250 cells (control cell line); CRL-7250, Log (M) -6.72207; read-out: Percent viability
readout-label: viability at 72 h, 190 nM (%)
The figure you give is taken to be in %; do not add the unit.

Task item: Look up viability at 72 h, 190 nM: COCCn1c2c([n+](Cc3cnccn3)c1C)C(=O)c1ccccc1C2=O [sepantronium bromide, reference compound]
Reply: 39.2

---

- test-protocol: qHTS cell viability (CellTiter-Glo, 72 h; primary screen), control cell line
- Type: cell-based, human
- run-conditions: human, HEK293T cells; HEK293T, Log (M) -7.67631; read-out: Percent viability
readout-label: viability at 72 h, 21.1 nM (%)
The figure you give is taken to be in %; do not add the unit.

Task item: Look up viability at 72 h, 21.1 nM: COCCn1c2c([n+](Cc3cnccn3)c1C)C(=O)c1ccccc1C2=O [sepantronium bromide, reference compound]
Reply: 23.3

---

- Tested on: UISO cells (VN-MCC)
- test-protocol: qHTS cell viability (CellTiter-Glo, 72 h; primary and follow-up small molecule screen)
- Type: cell-based, human
- run-conditions: follow-up screen; UISO; replicate 1
Structures can show the parent of a compound that is named as a salt.
readout-label: Area under the dose-response curve (AUC) UISO Replicate 1

Solved entries:
CCN(CCO)CCCC(C)Nc1ccnc2cc(Cl)ccc12 (stereo not drawn) [Hydroxychloroquine sulfate]	504.6
Nc1nc(Cl)nc2c1ncn2[C@@H]1O[C@H](CO)[C@@H](O)[C@@H]1F	305.8

Task item: Look up Area under the dose-response curve (AUC) UISO Replicate 1: CN[C@@H]1[C@H](O)[C@H](NC)[C@H]2O[C@@]3(O)C(=O)C[C@@H](C)O[C@H]3O[C@@H]2[C@H]1O.Cl.Cl.O.O.O.O.O [Spectinomycin hydrochloride]
Reply: 480.2

---

- test-protocol: qHTS cell viability (CellTiter-Glo, 72 h; primary screen), control cell line
- Type: cell-based, human
- run-conditions: human, HACAT cells (control cell line); HACAT, Log (M) -6.24494; read-out: Percent viability
readout-label: viability at 72 h, 0.569 µM (%)
The figure you give is taken to be in %; do not add the unit.

Task item: Look up viability at 72 h, 0.569 µM: COCCn1c2c([n+](Cc3cnccn3)c1C)C(=O)c1ccccc1C2=O [sepantronium bromide, reference compound]
Reply: 44.2

---

- Tested on: MKL-1 cells (VP-MCC)
- test-protocol: qHTS cell viability (CellTiter-Glo, 72 h; primary and follow-up small molecule screen)
- Type: cell-based, human
- run-conditions: follow-up screen; MKL-1; replicate 3
readout-label: Area under the dose-response curve (AUC) MKL-1 Replicate 3
// response body must contain only the number

Task item: Look up Area under the dose-response curve (AUC) MKL-1 Replicate 3: C/C=C(/C)C(=O)O[C@H]1C(C)=C2[C@H]([C@@H]1OC(=O)CCCCCCC)[C@@](C)(OC(C)=O)C[C@H](OC(=O)CCC)[C@@]1(O)[C@H]2OC(=O)[C@@]1(C)O
Reply: 395.7

---

- System: UISO cells (VN-MCC)
- test-protocol: qHTS cell viability (CellTiter-Glo, 72 h; primary and follow-up small molecule screen)
- Type: cell-based, human
Here the recorded Area under the dose-response curve (AUC) UISO Replicate 3 is given for each entry.
// response body must contain only the number

Task item: Look up Area under the dose-response curve (AUC) UISO Replicate 3: CN(C)c1ccc(C(=C2C=CC(=[N+](C)C)C=C2)c2ccc(N(C)C)cc2)cc1.[Cl-] [Methylrosaniline chloride]
Reply: 296.1

Task item: Look up Area under the dose-response curve (AUC) UISO Replicate 3: CC(=O)C1=C(O)[C@@H]2[C@H]3c4c[nH]c5cccc(c45)C[C@H]3C(C)(C)N2C1=O [Cyclopiazonic acid]
Reply: 445.8

Task item: Look up Area under the dose-response curve (AUC) UISO Replicate 3: C[n+]1cc2c3c(ccc2c2ccc4cc5c(cc4c21)OCO5)OCO3 [Sanguinarine]
Reply: 365.4

Task item: Look up Area under the dose-response curve (AUC) UISO Replicate 3: COc1cc(O)c2c(c1)oc(=O)c1c3cc(O)c(O)cc3oc21 [WEDELOLACTONE]
Reply: 228.5

Task item: Look up Area under the dose-response curve (AUC) UISO Replicate 3: O[C@H]1[C@H]2[C@H](O)CCCN2C[C@H]1O [Swainsonine]
Reply: 417.9

Task item: Look up Area under the dose-response curve (AUC) UISO Replicate 3: C[C@H]1O[C@@H](O[C@H]2[C@@H](O)C[C@H](O[C@H]3[C@@H](O)C[C@H](O[C@H]4CC[C@@]5(C)[C@H](CC[C@@H]6[C@@H]5CC[C@]5(C)[C@@H](C7=CC(=O)OC7)CC[C@]65O)C4)O[C@@H]3C)O[C@@H]2C)C[C@H](O)[C@@H]1O [Digitoxin]
Reply: 210.4

Task item: Look up Area under the dose-response curve (AUC) UISO Replicate 3: O=c1cccc2n1C[C@@H]1CNC[C@H]2C1 [Cytisine]
Reply: 502.6

---

- System: MCC26 cells (VN-MCC)
- test-protocol: qHTS cell viability (CellTiter-Glo, 72 h; primary and follow-up small molecule screen)
- Assay type: cell-based, human
- run-conditions: MCC26, 72h, Log (M) -9.63055
Here the recorded Percent viability is given for each entry.
The figure you give is taken to be in %; do not add the unit.

Solved entries:
O=C(Nc1cccc(Cl)c1)Nc1ncc(CCNc2ncnc3ccsc23)s1 [SNS-314, reference compound]	91.7
Cc1cc(Nc2cc(N3CCN(C)CC3)nc(Sc3ccc(NC(=O)C4CC4)cc3)n2)[nH]n1 [Tozasertib, reference compound]	87.8
CCn1cc(-c2ccnc3[nH]c(-c4cccc(CN(C)C)c4)cc23)c(-c2ccc(NC(=O)N(C)C)cc2)n1 [GSK-1070916A, reference compound]	87.6

Below: the item to evaluate.
Task item: Look up Percent viability: CCS(=O)(=O)c1cccc(-c2cc(C(=O)NC3CCN(C)CC3)c(C)c3[nH]c4ncc(C)cc4c23)c1 [TAK-901, reference compound]
Reply: 91.5

---

- test-protocol: qHTS cell viability (CellTiter-Glo, 72 h; primary screen), control cell line
- Type: cell-based, mouse
- run-conditions: mouse, NIH-3T3 cells; 3T3, Log (M) -9.10767; read-out: Percent viability
readout-label: viability at 72 h, 0.78 nM (%)
The figure you give is taken to be in %; do not add the unit.

Task item: Look up viability at 72 h, 0.78 nM: COCCn1c2c([n+](Cc3cnccn3)c1C)C(=O)c1ccccc1C2=O [sepantronium bromide, reference compound]
Reply: 100

---

- Tested on: WAGA cells (VP-MCC)
- test-protocol: qHTS cell viability (CellTiter-Glo, 72 h; primary and follow-up small molecule screen)
- Type: cell-based, human
- run-conditions: WAGA, 72h, Log (M) -9.15343
readout-label: Percent viability

O=C(Nc1cccc(Cl)c1)Nc1ncc(CCNc2ncnc3ccsc23)s1 [SNS-314, reference compound]	100.0%
CCn1cc(-c2ccnc3[nH]c(-c4cccc(CN(C)C)c4)cc23)c(-c2ccc(NC(=O)N(C)C)cc2)n1 [GSK-1070916A, reference compound]	100.0%
Cc1cc(Nc2cc(N3CCN(C)CC3)nc(Sc3ccc(NC(=O)C4CC4)cc3)n2)[nH]n1 [Tozasertib, reference compound]	101.2%

Below: the item to evaluate.
Task item: Look up Percent viability: CCS(=O)(=O)c1cccc(-c2cc(C(=O)NC3CCN(C)CC3)c(C)c3[nH]c4ncc(C)cc4c23)c1 [TAK-901, reference compound]
Reply: 112.0%
